# maps each entry to its TGI
test system: SNB-75 CNS; experiment: NCI tumour cell line growth inhibition, 48 h
Please reply with the bare figure in µM and do not write the unit itself.

Illustrative cases are given below, each with its answer.
stdin: Return value of TGI for input Nc1nc(-c2ccccc2)cc(-c2ccccc2O)n1 , no commentary.
stdout: 82.4

stdin: Fill in reported TGI for this entry: CSc1nc(=Nc2ccccc2)sn1-c1ccccc1
stdout: 55.8

stdin: Supply recorded TGI for N=C1S/C(=C/c2ccc(-c3ccc4c(c3)C(=O)NC4=O)o2)C(=O)N1c1ccc(Br)cc1 here.
stdout: 6.76

stdin: Determine its reported TGI: CCOCCOc1ccc(OCCOCC)cc1
stdout: 52.8

Further cases:
stdin: State, in one line, measured TGI of O=C(Nc1cccc(Cl)c1)Nc1cc2ncncc2cc1OCc1cccc(F)c1
stdout: 3.98

stdin: Specify reported TGI for the molecule shown: N#C/C(=C\c1c(Cl)cccc1Cl)c1ccccc1
stdout: 7.76

stdin: For the molecule N#Cc1ccc(Sc2ccccc2)cc1C#N , give its reported TGI.
stdout: 52.1

stdin: Specify measured TGI for Clc1ccc2oc(CCC3CCCCC3)nc2c1 .
stdout: 58.1

stdin: Name the recorded TGI of the molecule listed here: O=C1CC2(CCC(O)(c3cccc4ccccc34)C(C(=O)c3cccc4ccccc34)C2)C(=O)c2ccccc2N1 (centres undefined)
stdout: 34.3

stdin: Provide TGI value for the following molecule: CC(C)(C)c1ccc2c(c1)C(=O)c1ccccc1C2=O
stdout: 87

stdin: Specify measured TGI for CCOc1ccc2nc3cc(N=Nc4ccc(N)nc4N)ccc3c(N)c2c1 .
stdout: 5.11

stdin: Please list TGI recorded for the molecule CN(C)c1ccc(/C=N/N=C2\C(=O)Nc3c(Cl)cc(Cl)cc32)cc1
stdout: 56.9

###

test system: HS 578T breast; assay: NCI tumour cell line growth inhibition, 48 h
Property: TGI

These recorded examples may help you get a feel for the data.
stdin: Give the value of TGI reported for the following: CN(C)CCNC(=O)c1cnn(C)c1[N+](=O)[O-]
stdout: > 100 µM

stdin: Give me measured TGI, please, for this compound: CC1(C(=O)O)CCC(C(=O)O)C(C)(C)O1 (stereo not drawn)
stdout: > 100 µM

stdin: Hello, please tell me recorded TGI for this one: CCOc1ccc(NC(=O)/C(=N\N)C(C(=O)OC)c2nc3ccc(Cl)cc3[nH]c2=O)cc1 (stereo not drawn)
stdout: > 100 µM

stdin: Consider the compound CC(C)(C)N/N=C(\C(=O)Nc1ccc([N+](=O)[O-])cc1[N+](=O)[O-])c1nc2ccc([N+](=O)[O-])cc2[nH]c1=O and give its recorded TGI.
stdout: > 100 µM

stdin: State, in one line, measured TGI of COc1cc2c(cc1OCCCCCN1CCN(c3cc(=O)oc4ccccc34)CC1)N=C[C@@H]1CCCN1C2=O
stdout: 1.84 µM

Continue with the compound presented below.
stdin: Quickly give me recorded TGI for C/C=C\C(CC(=O)O)CN1CCC2=C(C1)C(S(=O)(=O)C(F)(F)F)c1ccccc12 (stereo not drawn)
stdout: > 100 µM

###

Listed compounds paired with reported TGI
tested on: A549 NSCLC; assay: NCI tumour cell line growth inhibition, 48 h
*1 amine or outer side, *2 acyl side, *3 side chain or, on linkers, in order; H or OH if unused. Where a SMILES comes first, the peptide text is derived from it. Bridges are numbered along the chain shown (N, C = ends). [ ]: non-standard residue; d: D form. The star is where a group is joined. Phe(3,5-F2) = N[C@@H](Cc1cc(F)cc(F)c1)C(=O)O; Pro(4R-Me) = C[C@H]1CN[C@H](C(=O)O)C1; aThr = C[C@H](O)[C@H](N)C(=O)O; Pip = O=C(O)[C@@H]1CCCCN1; X10 = Fc1cc(C2CC2)ccc1N*; Abu = CC[C@H](N)C(=O)O; CO = O=C([*:1])[*:2]

// solved cases for TGI follow
stdin: Give the reported TGI for this compound. CC[C@@H]1NC(=O)[C@@H]2CCCCN2C(=O)[C@@H]2CCCN2C(=O)[C@@H](NC(=O)[C@H](Cc2cc(F)cc(F)c2)NC(=O)Nc2ccc(C3CC3)cc2F)[C@H](C)OC(=O)[C@@H]2C[C@@H](C)CN2C1=O ({X10-CO}-[Phe(3,5-F2)][aThr]P[Pip][Abu][Pro(4R-Me)]; ester 2-C)
stdout: > 65 µM

stdin: Check the records and state TGI for Oc1c(Cl)cc(Cl)c2ccc(Cn3cc(-c4cc(F)cc(F)c4)nn3)nc12
stdout: 38.4 µM

Pending compound:
stdin: Look up and state reported TGI for CN(C)CCCCC1CCN(CC(=O)N2c3ccccc3NC(=O)c3ccccc32)CC1
stdout: > 100 µM
